Target: human PTH1 receptor (Homo sapiens)
Sequence (Q03431 27-593): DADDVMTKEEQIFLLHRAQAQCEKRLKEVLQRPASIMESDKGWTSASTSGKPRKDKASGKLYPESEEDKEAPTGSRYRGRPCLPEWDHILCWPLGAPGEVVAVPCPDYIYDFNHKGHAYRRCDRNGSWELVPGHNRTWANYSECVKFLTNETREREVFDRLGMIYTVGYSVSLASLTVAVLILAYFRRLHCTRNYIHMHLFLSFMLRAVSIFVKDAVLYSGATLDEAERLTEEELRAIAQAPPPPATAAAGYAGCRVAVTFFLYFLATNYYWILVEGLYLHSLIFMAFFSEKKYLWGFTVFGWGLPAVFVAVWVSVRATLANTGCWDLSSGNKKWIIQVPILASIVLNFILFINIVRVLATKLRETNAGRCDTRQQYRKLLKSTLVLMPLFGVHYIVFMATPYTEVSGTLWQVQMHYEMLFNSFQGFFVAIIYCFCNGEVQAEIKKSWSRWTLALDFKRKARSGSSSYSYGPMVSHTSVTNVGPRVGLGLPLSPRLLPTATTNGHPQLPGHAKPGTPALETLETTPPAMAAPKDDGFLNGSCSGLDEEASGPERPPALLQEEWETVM
Assay: In vitro cAMP signal activity in HKRK-B7 cells (LLC-PK1 cells overexpressing the human PTH1 receptor)
Assay type: cell-based
Conditions: HKRK-B7 cells; compound at 1×10^−3 M; cAMP produced as percentage of that produced by hPTH(1-34) at 100 nM
I'd appreciate it if you marked entries Met when cAMP production activity (%) is lower than 50% and Not met when it is not.

Observe how each entry below is paired with its result.
compound: O=C(N1CCOCC1)n1ccc2c(/C=C/S(=O)(=O)N3CCC4(CC3)N=C(C3CCCCC3)NC4=O)cccc21 [Compound 477]
category: Met
--
compound: CC(=O)N(CCOCCF)c1cc(C)c(/C=C/S(=O)(=O)N2CCC3(CC2)N=C(C2CCC(CCC(F)(F)F)CC2)NC3=O)c(C)c1 (stereo not shown) [Compound 551]
category: Not met
--
compound: COc1cccc(C(=O)N2CCCC(C3=NC4(CCN(S(=O)(=O)c5cccc(Cl)c5)CC4)C(=O)N3)C2)c1 (stereo not shown) [Compound 426]
category: Met
--
compound: CCCc1cccc(-c2cccc(C3=NC4(CCN(S(=O)(=O)CCc5c(C)cc(N(C)C(N)=O)cc5C)CC4)C(=O)N3)c2)c1 [Compound 1136]
category: Not met

IN: Find out if reported cAMP production activity (%) for Cc1cc(N(C)C(N)=O)cc(C)c1CCS(=O)(=O)N1CCC2(CC1)N=C(C1CCC(C(F)(F)F)CC1)NC2=O (stereo not shown) [Compound 472] is less than 50%
OUT: Not met

IN: // query: O=C1NC(c2cccc(OC(F)(F)F)c2)=NC12CCN(S(=O)(=O)CCc1cccc3[nH]ccc13)CC2 [Compound 305]
OUT: Not met

---

Target: human PTH1 receptor (Homo sapiens, UniProt Q03431)
Assay: In vitro cAMP signal activity in HKRK-B7 cells (LLC-PK1 cells overexpressing the human PTH1 receptor)
Format: cell-based
Conditions: HKRK-B7 cells; compound at 1×10^−3 M; cAMP produced as percentage of that produced by hPTH(1-34) at 100 nM
experimental endpoint: cAMP production activity (%)
Expressed in %, but write only the number.

Examples with their reported cAMP production activity (%) follow.
compound: Cc1cc(C(=O)N(C)C)ccc1CCS(=O)(=O)N1CCC2(CC1)N=C(c1cccc(Cl)c1)NC2=O
system name: human PTH1 receptor (Homo sapiens, UniProt Q03431)
experimental endpoint: cAMP production activity (%)
numeric readout: 57
//
compound: Cc1cc(N(C)C(N)=O)cc(C)c1CCS(=O)(=O)N1CCC2(CC1)N=C(C1C[C@@H](C)[C@@H](C)C1)NC2=O (stereo partly shown)
system name: human PTH1 receptor (Homo sapiens, UniProt Q03431)
experimental endpoint: cAMP production activity (%)
numeric readout: 85
//
compound: Cc1cc(C(=O)N2CCC(O)CC2)cc(C)c1CCS(=O)(=O)N1CCC2(CC1)N=C(c1ccc(F)c(C(F)(F)F)c1)NC2=O
system name: human PTH1 receptor (Homo sapiens, UniProt Q03431)
experimental endpoint: cAMP production activity (%)
numeric readout: 88

Next compound, please.
IN: Can you look up the measured cAMP production activity (%) of O=C1NC(C2CCCCC2)=NC12CCN(S(=O)(=O)/C=C/c1cccc3[nH]c(=O)oc13)CC2 for me?
OUT: 70

---

cAMP production activity (%) listing for selected molecules.
Target: human PTH1 receptor (Homo sapiens)
Assay: In vitro cAMP signal activity in HKRK-B7 cells (LLC-PK1 cells overexpressing the human PTH1 receptor)
Type: cell-based
Conditions: HKRK-B7 cells; compound at 1×10^−3 M; cAMP produced as percentage of that produced by hPTH(1-34) at 100 nM
Expressed in %, but write only the number.

Examples with their reported cAMP production activity (%) follow.
molecule: O=C1NC(C2CCCCC2)=NC12CCN(S(=O)(=O)CCc1ccc3c(ccn3C[C@H](O)CO)c1)CC2
system name: human PTH1 receptor (Homo sapiens)
unit spec: %
numeric readout: 109
//
molecule: O=C1NC(CCCCCCCCC(F)(F)F)=NC12CCN(S(=O)(=O)/C=C/c1cccc3c1ccn3C[C@H](O)CO)CC2
system name: human PTH1 receptor (Homo sapiens)
unit spec: %
numeric readout: 134
//
molecule: Cc1cc(N(C2CCOCC2)S(C)(=O)=O)cc(C)c1/C=C/S(=O)(=O)N1CCC2(CC1)N=C(c1cccc(OC(F)(F)F)c1)NC2=O
system name: human PTH1 receptor (Homo sapiens)
unit spec: %
numeric readout: 39
//
molecule: Cc1cc(S(=O)(=O)NCc2cccnc2)ccc1CCS(=O)(=O)N1CCC2(CC1)N=C(c1cccc(C(F)(F)F)c1)NC2=O
system name: human PTH1 receptor (Homo sapiens)
unit spec: %
numeric readout: 58
//
molecule: CC(=O)N(CCO)c1ccc(/C=C/S(=O)(=O)N2CCC3(CC2)N=C(c2cccc(C(F)(F)F)c2F)NC3=O)c(C)c1
system name: human PTH1 receptor (Homo sapiens)
unit spec: %
numeric readout: 67

Next molecule, please.
IN: Can you look up the measured cAMP production activity (%) of O=C1NC(C2CCC(CCC(F)(F)F)CC2)=NC12CCN(S(=O)(=O)CCc1cccc3c1ccn3CCOC[C@H](O)[C@@H](O)CO)CC2 (stereo partly drawn) for me?
OUT: 103

---

Target: human PTH1 receptor (Homo sapiens, UniProt Q03431)
Assay: In vitro cAMP signal activity in HKRK-B7 cells (LLC-PK1 cells overexpressing the human PTH1 receptor)
Type: cell-based
Conditions: HKRK-B7 cells; compound at 1×10^−3 M; cAMP produced as percentage of that produced by hPTH(1-34) at 100 nM
experimental endpoint: cAMP production activity (%)
Expressed in %, but write only the number.

Examples with their reported cAMP production activity (%) follow.
molecule: CC(C)(C)CNC(=O)Cc1ccc(/C=C/S(=O)(=O)N2CCC3(CC2)N=C(C2CCCCC2)NC3=O)cc1
system name: human PTH1 receptor (Homo sapiens, UniProt Q03431)
unit spec: %
cAMP production activity (%): 66
//
molecule: Cc1cc(N2C(=O)CNC2=O)ccc1CCS(=O)(=O)N1CCC2(CC1)N=C([C@H]1CCC[C@@H](C)C1)NC2=O
system name: human PTH1 receptor (Homo sapiens, UniProt Q03431)
unit spec: %
cAMP production activity (%): 59
//
molecule: Cc1cc(OC[C@H](O)[C@@H](O)CO)cc(C)c1/C=C/S(=O)(=O)N1CCC2(CC1)N=C(C1CCC(CCC(F)(F)F)CC1)NC2=O (stereo partly shown)
system name: human PTH1 receptor (Homo sapiens, UniProt Q03431)
unit spec: %
cAMP production activity (%): 76
//
molecule: Cc1cc(C(=O)N2CCN(C(C)C)CC2)ccc1CCS(=O)(=O)N1CCC2(CC1)N=C(c1cccc(OC(F)(F)F)c1)NC2=O
system name: human PTH1 receptor (Homo sapiens, UniProt Q03431)
unit spec: %
cAMP production activity (%): 124
//
molecule: Cc1cc(N(CCF)C(N)=O)cc(C)c1/C=C/S(=O)(=O)N1CCC2(CC1)N=C(C1CCC(CCC(F)(F)F)CC1)NC2=O (stereo not shown)
system name: human PTH1 receptor (Homo sapiens, UniProt Q03431)
unit spec: %
cAMP production activity (%): 77

IN: Can you look up the measured cAMP production activity (%) of Cc1cc(C(=O)N(C)C)ccc1CCS(=O)(=O)N1CCC2(CC1)N=C(C1CCCC1)NC2=O for me?
OUT: 69

IN: // query: Cc1ccc(NCCO)cc1/C=C/S(=O)(=O)N1CCC2(CC1)N=C(C1CCCCC1)NC2=O
OUT: 46

---

Target: human PTH1 receptor (Homo sapiens, UniProt Q03431)
Sequence (Q03431 27-593): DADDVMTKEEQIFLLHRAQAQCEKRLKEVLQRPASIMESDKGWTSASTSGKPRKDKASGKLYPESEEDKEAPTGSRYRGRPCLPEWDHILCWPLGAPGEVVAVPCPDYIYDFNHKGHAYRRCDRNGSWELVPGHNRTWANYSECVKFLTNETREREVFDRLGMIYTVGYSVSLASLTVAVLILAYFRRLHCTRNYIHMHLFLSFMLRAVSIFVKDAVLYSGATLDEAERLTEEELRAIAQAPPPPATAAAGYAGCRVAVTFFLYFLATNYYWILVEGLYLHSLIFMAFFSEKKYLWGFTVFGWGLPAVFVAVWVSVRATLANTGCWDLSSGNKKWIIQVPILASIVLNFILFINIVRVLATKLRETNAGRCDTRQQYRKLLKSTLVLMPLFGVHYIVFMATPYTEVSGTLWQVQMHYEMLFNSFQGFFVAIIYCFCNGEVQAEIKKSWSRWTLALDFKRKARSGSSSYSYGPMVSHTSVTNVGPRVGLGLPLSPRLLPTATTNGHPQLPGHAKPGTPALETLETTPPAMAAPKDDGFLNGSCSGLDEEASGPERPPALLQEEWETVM
Assay: In vitro cAMP signal activity in HKRK-B7 cells (LLC-PK1 cells overexpressing the human PTH1 receptor)
Type: cell-based
Conditions: HKRK-B7 cells; compound at 1×10^−3 M; cAMP produced as percentage of that produced by hPTH(1-34) at 100 nM
I'd appreciate it if you marked entries TRUE when cAMP production activity (%) is lower than 70% and FALSE when it is not.

compound: Cc1cc(N(C)C(N)=O)cc(C)c1/C=C/S(=O)(=O)N1CCC2(CC1)N=C(CCCCCCCCCc1ccccc1)NC2=O
category: FALSE

compound: CC(C)(C)OC(=O)NCc1ccc(CCS(=O)(=O)N2CCC3(CC2)N=C(C2CCCCC2)NC3=O)c(C(F)(F)F)c1
category: TRUE

Below: the item to evaluate.
IN: Find out if reported cAMP production activity (%) for Cc1cc(C(=O)N(C)CCCN(C)C)cc(C)c1/C=C/S(=O)(=O)N1CCC2(CC1)N=C(c1cccc(C(F)(F)F)c1)NC2=O is less than 70%
OUT: TRUE
